Target under test: T1, hemagglutinin ectodomain of influenza virus H1/PR/8/34 (influenza virus H1/PR/8/34, UniProt P03452 18-528)
T1 construct: extracellular domain; also called HA H1/PR/8/34
T1 sequence (P03452 18-528): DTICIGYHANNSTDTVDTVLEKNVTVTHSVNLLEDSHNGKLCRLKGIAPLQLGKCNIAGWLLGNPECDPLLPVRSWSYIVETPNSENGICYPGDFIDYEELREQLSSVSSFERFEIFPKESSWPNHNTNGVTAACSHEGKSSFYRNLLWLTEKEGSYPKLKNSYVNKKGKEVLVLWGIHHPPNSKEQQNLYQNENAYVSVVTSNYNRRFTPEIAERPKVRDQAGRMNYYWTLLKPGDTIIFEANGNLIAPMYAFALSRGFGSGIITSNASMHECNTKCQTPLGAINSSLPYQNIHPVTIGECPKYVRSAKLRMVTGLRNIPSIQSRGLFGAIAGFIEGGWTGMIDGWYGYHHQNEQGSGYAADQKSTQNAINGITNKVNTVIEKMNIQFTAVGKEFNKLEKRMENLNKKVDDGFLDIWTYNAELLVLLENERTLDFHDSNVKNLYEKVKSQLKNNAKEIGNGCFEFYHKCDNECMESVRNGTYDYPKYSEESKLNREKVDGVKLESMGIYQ
Test description: immunoassay or flow cytometry

{"Binder": "scFv 1-420 (scFv, V domains shown) VH: QVQLVQSGAEVKKPGSSVKVSCKASGGAFTMYTINWVRQAPGRGLEWMGRIIPILGITDYAQKFQGRGTITADKSTSTAYLELSGLTSEDTAVYYCAREFSGGNYFDFWGQGTLVTVSS VL: ELELTQPPSVSISPGKTAKIFCGGNSIGRKSVHWYQQKPGQAPVLVVYDDSDRPSGIPERFSGSNSGNTATLTISRVEAGDEADYYCQVWDSSSDYVVFGGGTKLTVL", "binding result": "no binding"}
{"Binder": "scFv 1-428 (scFv, V domains shown) VH: EVQLVQSGAEVKKPGSSVKVSCKASGSNFSSHTINWVRQAPGHGLEWMGKIIPVLDISKDAETFLGRVVITADKSTSTAYMELSSLRSEDTAIYYCAMDSVYGNFDFWGQGTLVTVSS VL: ELELTQPPSVSVSPGQTARITCSGDALPKQYAYWYQQKPGQAPVLVIYKDSERPSGIPERFSGSSSGTTVTLTISGVQAEDEADYYCQSADSSGTYEVFGGGTKLTVL", "binding result": "no binding"}
{"Binder": "scFv 2-103 (scFv, V domains shown) VH: QVQLVQSGAEVKKPGSSVKVSCKASGGTFSSYDINWVRQAPGQGLEWMGSIIPILGISNYAQKFQGRVTITADKSTSTAYMELSSLRSEDTAVYYCARDQGYANNYGAYWGQGTLVTVSS VL: ELVLTQPPSVSVAPGQTARITCGGNNIGSKSVHWYQQKPGQAPVVVVYDDSDRPSGIPERFSGSNSGNTATLTISRVEAGDEADYYCQVWDSSSDHWVFGGGTELTVL", "binding result": "no binding"}
{"Binder": "scFv 3-302 (scFv, V domains shown) VH: QVQLVQSGAEVKRPGSSVKVSCKASGNTFSNYHINWVRQAPGQGLQWMGGIIPILGRTNYAQNFQGRVTITTDESTNTAYMELTSLRSEDTAVYYCAREARDSFDFWGQGTMVTVSS VL: ELVLTQPPSVSVSPGQTASITCSGDKLGHTYTSWYQQKPGQSPVLVIYQDNRRPSGLPERFSGSNSGNTATLTISRVEAGDEADYYCQVWESSSDHLVFGGGTELTVL", "binding result": "no binding"}
{"Binder": "scFv 3-301 (scFv, V domains shown) VH: EVQLVQSGAEVKKPGSSVKVSCKASGGTFSSYAISWVRQAPGQGLEWMGGIIPILGITNYAQKFQGRVTITADESTGAAYMELSSLASEDTAVYYCARDDTGRDDYFEYWGQGTLVTVSS VL: ELVLTQPPSVSVSPGQTARITCSGDALPKQYAYWYQQKPGQAPVLVIYKDSERPSGIPERFSGSSSGTTVTLTISGVQAEDEADYYCQSADSNGTYKVFGGGTELTVL", "binding result": "no binding"}
